Test system: Staphylococcus aureus
API: label(entry) gives true if the entry's MIC is strictly smaller than 5 µM; on equality or larger values it gives false.

Use these answered entries as a reference point.
CC[C@H](C)[C@H](NC(=O)[C@H](Cc1cnc[nH]1)NC(=O)[C@H](CCCCN)NC(=O)[C@H](CC(C)C)NC(=O)[C@H](CC(C)C)NC(=O)[C@H](CCCCN)NC(=O)[C@H](CCSC)NC(=O)[C@H](Cc1c[nH]c2ccccc12)NC(=O)[C@H](CCCCN)NC(=O)CN)C(=O)N[C@@H](CC(C)C)C(=O)N[C@@H](CCCCN)C(N)=O [GKWMKLLKHILK]
true
NCCCC[C@H](NC(=O)CNC(=O)[C@H](Cc1ccccc1)NC(=O)[C@H](CCCCN)NC(=O)[C@@H](N)CCC(=O)O)C(=O)N[C@@H](CC(=O)O)C(=O)N[C@@H](CCCCN)C(=O)N[C@@H](CO)C(=O)N1CCC[C@H]1C(=O)N[C@@H](CCCCN)C(=O)N[C@@H](Cc1ccccc1)C(=O)N[C@@H](CCC(N)=O)C(=O)O [EKFGKDKSPKFQ]
false
CC[C@H](C)[C@@H]1NC(=O)CNC(=O)[C@H](CCCCN)NC(=O)[C@H](Cc2ccc(O)cc2)NC(=O)[C@@H]2CSSC[C@H](NC1=O)C(=O)N[C@@H](Cc1ccc(O)cc1)C(=O)N[C@@H](CCCCN)C(=O)N[C@@H](CCCCN)C(=O)N[C@H](C(=O)N[C@@H](CCCCN)C(N)=O)CSSC[C@H](NC(=O)[C@H](Cc1c[nH]c3ccccc13)NC(=O)[C@@H](N)CCCN=C(N)N)C(=O)N[C@@H](Cc1ccccc1)C(=O)N[C@@H](CCCCN)C(=O)N[C@@H](C(C)C)C(=O)N2 [RWCFKVCYKGICYKKCK]
false

Q) Is MIC of CC[C@H](C)[C@H](NC(=O)[C@@H](N)CCCCN)C(=O)N[C@@H](CCCCN)C(=O)N[C@H](C(=O)N1CCC[C@H]1C(=O)N[C@@H](Cc1c[nH]c2ccccc12)C(=O)NCC(=O)N[C@@H](CCCCN)C(=O)N[C@H](C(=O)N[C@@H](CCCCN)C(=O)N[C@@H](CC(=O)O)C(=O)N[C@@H](Cc1ccccc1)C(=O)N[C@@H](CC(C)C)C(=O)N[C@H](C(=O)NCC(=O)NCC(=O)N[C@@H](CCSC)C(=O)N[C@@H](CCCCN)C(=O)N[C@@H](C)C(=O)N[C@H](C(=O)O)C(C)C)C(C)C)C(C)C)[C@@H](C)CC [KIKIPWGKVKDFLVGGMKAV] strictly below 5 µM?
A) false

Q) Is MIC of CC(C)C[C@H](NC(=O)[C@H](Cc1ccccc1)NC(=O)[C@H](C)NC(=O)[C@H](Cc1c[nH]c2ccccc12)NC(=O)[C@H](Cc1c[nH]c2ccccc12)NC(=O)[C@H](Cc1c[nH]c2ccccc12)NC(=O)[C@@H]1CCCN1C(=O)[C@H](Cc1ccccc1)NC(=O)[C@H](CCCN=C(N)N)NC(=O)[C@H](CCCN=C(N)N)NC(=O)[C@@H](N)C(C)C)C(=O)N[C@@H](CCCN=C(N)N)C(=O)N[C@@H](CCCN=C(N)N)C(N)=O [VRRFPWWWAFLRR] strictly below 5 µM?
A) true

###

Tested on: Streptococcus mutans
Assign MIC to each entry below.
One number for each entry, in µM.

CC[C@H](C)[C@H](N)C(=O)N[C@@H](CCCN=C(N)N)C(=O)N[C@@H](CCCCN)C(=O)N[C@@H](CC(C)C)C(=O)N[C@@H](CCCCN)C(=O)N[C@@H](CO)C(=O)N[C@@H](Cc1c[nH]c2ccccc12)C(=O)N[C@@H](CCCCN)C(=O)N[C@@H](Cc1c[nH]c2ccccc12)C(=O)N[C@@H](CC(C)C)C(=O)N[C@@H](CCCN=C(N)N)C(=O)N[C@@H](Cc1c[nH]c2ccccc12)C(=O)N[C@@H](CC(C)C)C(=O)O
8

Now for another entry.
MIC for "NCCCC[C@H](NC(=O)[C@H](Cc1c[nH]c2ccccc12)NC(=O)[C@H](CCCN=C(N)N)NC(=O)[C@H](Cc1c[nH]c2ccccc12)NC(=O)[C@H](CCCN=C(N)N)NC(=O)[C@H](Cc1c[nH]c2ccccc12)NC(=O)[C@@H](N)CCCN=C(N)N)C(=O)O" is 27.3

###

Form: system (Bacillus subtilis ATCC 6633), quantity (MIC), values below.

CC(C)C[C@H](NC(=O)[C@@H]1CCCN1C(=O)[C@H](CCCCN)NC(=O)[C@@H]1CCCN1C(=O)[C@H](Cc1ccc(O)cc1)NC(=O)[C@H](CCCCN)NC(=O)[C@H](Cc1c[nH]c2ccccc12)NC(=O)[C@H](CCCN=C(N)N)NC(=O)[C@@H](N)Cc1ccccc1)C(=O)N[C@@H](CCCCN)C(=O)N[C@@H](CCCN=C(N)N)C(=O)O
≥ 65.8 µM

Now for another entry.
Result for "CC(C)[C@H](NC(=O)[C@H](CCCCN)NC(=O)[C@@H](NC(=O)[C@H](CCC(N)=O)NC(=O)[C@H](CCCCN)NC(=O)[C@H](Cc1c[nH]c2ccccc12)NC(=O)[C@@H](N)CCCN=C(N)N)C(C)C)C(=O)N[C@@H](CCCCN)C(=O)N[C@@H](CCCN=C(N)N)C(=O)O" , tested on Bacillus subtilis ATCC 6633, MIC: ≥ 61.1 µM

###

System: Staphylococcus aureus ATCC 29213
Assign MIC to each entry below.
One number for each entry, in µM.

Below are worked cases with known answers.
NC(=O)[C@H](CCCN=C(N)N)NC(=O)[C@H](CCCN=C(N)N)NC(=O)[C@H](Cc1c[nH]c2ccccc12)NC(=O)[C@H](CS)NC(=O)[C@H](Cc1c[nH]c2ccccc12)NC(=O)[C@H](Cc1c[nH]c2ccccc12)NC(=O)[C@H](Cc1c[nH]c2ccccc12)NC(=O)[C@H](CS)NC(=O)[C@H](Cc1c[nH]c2ccccc12)NC(=O)[C@H](CCCN=C(N)N)NC(=O)[C@@H](N)CCCN=C(N)N [RRWCWWWCWRR]
8
CSCC[C@H](NC(=O)[C@H](CC(C)C)NC(=O)CN)C(=O)N[C@@H](CCCCN)C(=O)N[C@@H](CC(C)C)C(=O)N[C@@H](CC(C)C)C(=O)N[C@@H](CCCN=C(N)N)C(=O)N[C@@H](CCC(=O)O)C(=O)N[C@@H](CC(C)C)C(=O)N[C@@H](CC(C)C)C(=O)N[C@@H](Cc1cnc[nH]1)C(=O)N[C@@H](CCSC)C(=O)N[C@@H](Cc1ccccc1)C(=O)N[C@@H](CO)C(=O)N[C@@H](CCCN=C(N)N)C(=O)N[C@H](C(=O)NCC(=O)O)C(C)C [GLMKLLRELLHMFSRVG]
32
CC(=O)N[C@@H](CCCCN)C(=O)N[C@@H](CC(C)C)C(=O)N[C@@H](CC(C)C)C(=O)N[C@@H](CCCCN)C(=O)N[C@@H](CC(C)C)C(=O)N[C@@H](CC(C)C)C(=O)N[C@@H](CCCCN)C(=O)N[C@@H](CCCCN)C(=O)N[C@@H](CC(C)C)C(=O)N1CCC[C@H]1C(=O)N[C@@H](CCCCN)C(=O)N[C@@H](CC(C)C)C(=O)N[C@@H](CC(C)C)C(=O)N[C@@H](CCCCN)C(N)=O [KLLKLLKKLPKLLK]
40
CC(=O)N[C@@H](CC(C)C)C(=O)N[C@@H](CCCCN)C(=O)N[C@@H](CCCCN)C(=O)N1CCC[C@H]1C(=O)N[C@@H](CC(C)C)C(=O)N[C@@H](CCCCN)C(=O)N[C@@H](CC(C)C)C(=O)NCC(=O)N[C@@H](CCCCN)C(=O)N[C@@H](CCCCN)C(=O)N[C@@H](CC(C)C)C(=O)N[C@@H](CC(C)C)C(=O)N[C@@H](CCCCN)C(=O)N[C@@H](CC(C)C)C(N)=O [LKKPLKLGKKLLKL]
40
CC(C)C[C@H](NC(=O)[C@H](CCCCN)NC(=O)[C@H](CC(C)C)NC(=O)[C@H](CC(C)C)NC(=O)[C@H](CCCCN)NC(=O)[C@H](CCCCN)NC(=O)[C@@H](N)CC(C)C)C(=O)NCC(=O)N[C@@H](CCCCN)C(=O)N[C@@H](CCCCN)C(=O)N[C@@H](CC(C)C)C(=O)N[C@@H](CC(C)C)C(=O)N[C@@H](CCCCN)C(=O)N[C@@H](CC(C)C)C(=O)N[C@@H](C)C(=O)NCC(=O)O [LKKLLKLGKKLLKLAG]
5

Now for another entry.
MIC for NCC(=O)N[C@@H](Cc1c[nH]c2ccccc12)C(=O)N[C@@H](CCCN=C(N)N)C(=O)N[C@@H](Cc1c[nH]c2ccccc12)C(=O)N[C@@H](Cc1c[nH]c2ccccc12)C(=O)N[C@@H](Cc1c[nH]c2ccccc12)C(=O)N[C@@H](CCCN=C(N)N)C(=O)N[C@@H](Cc1c[nH]c2ccccc12)C(=O)NCC(N)=O [GWRWWWRWG] is 8

This collection of values is drawn from DBAASP.
